# key: entry, value: inhibition of growth at 100 µM
# System: COLO 205
# Protocol Details: Cytotoxicity against human COLO205 cells at 10^-4 M after 48 hrs by SRB assay
# Format: functional
# Experimental Context: COLO 205, 48 h, read-out: GI
Please respond with the number in % and leave the unit unwritten.

[
  {
    "Line Notation": "C#CCN(Cc1nc2cc(C(F)(F)F)ccc2nc1-c1ccccc1)c1ccc(F)c(F)c1",
    "Subject Of Test": "COLO 205",
    "Measurement": 75
  },
  {
    "Line Notation": "C#CCN(Cc1nc2cc(C(F)(F)F)ccc2nc1-c1ccccc1)c1ccc(C)cc1",
    "Subject Of Test": "COLO 205",
    "Measurement": 177
  },
  {
    "Line Notation": "C#CCN(Cc1nc2cc(C(F)(F)F)ccc2nc1-c1ccccc1)c1ccc(OC(F)(F)F)cc1",
    "Subject Of Test": "COLO 205",
    "Measurement": 73
  },
  {
    "Line Notation": "CCN(Cc1nc2cc(C(F)(F)F)ccc2nc1-c1ccccc1)c1ccc(OC)c(OC)c1",
    "Subject Of Test": "COLO 205",
    "Measurement": 92
  }
]

Next:
q: I'd like to know its inhibition of growth at 100 µM. The compound in question is C#CCN(Cc1nc2cc(C(F)(F)F)ccc2nc1-c1ccccc1)c1ccc(F)cc1
a: 126

---

# Test system: HOP-92
# Protocol Details: Cytotoxicity against human HOP92 cells at 10^-4 M after 48 hrs by SRB assay
# Assay type: functional
# Experimental Context: HOP-92, 48 h, read-out: GI
# key: entry, value: inhibition of growth at 100 µM
Please respond with the number in % and leave the unit unwritten.

// below: answered compounds
[
  {
    "Line Notation": "C#CCN(Cc1nc2cc(C(F)(F)F)ccc2nc1-c1ccccc1)c1ccc(OC(F)(F)F)cc1",
    "Unit Annotation": "%",
    "inhibition of growth at 100 µM": 109
  },
  {
    "Line Notation": "C#CCN(Cc1nc2cc(C(F)(F)F)ccc2nc1-c1ccccc1)c1ccc(F)cc1",
    "Unit Annotation": "%",
    "inhibition of growth at 100 µM": 106
  },
  {
    "Line Notation": "C#CCN(Cc1nc2cc(C(F)(F)F)ccc2nc1-c1ccccc1)c1ccc(C)cc1",
    "Unit Annotation": "%",
    "inhibition of growth at 100 µM": 93
  },
  {
    "Line Notation": "CCN(Cc1nc2cc(C(F)(F)F)ccc2nc1-c1ccccc1)c1ccc(OC)c(OC)c1",
    "Unit Annotation": "%",
    "inhibition of growth at 100 µM": 184
  }
]

Next:
q: I'd like to know its inhibition of growth at 100 µM. The compound in question is C#CCN(Cc1nc2cc(C(F)(F)F)ccc2nc1-c1ccccc1)c1ccc(F)c(F)c1
a: 63

---

# System: SF-268
# Protocol Details: Cytotoxicity against human SF268 cells assessed as cell growth at 10^-4 M after 48 hrs by alamar blue assay relative to untreated control
# Format: functional
# Experimental Context: SF-268, 48 h, read-out: Activity
Readout Label: growth at 100 µM (%)
Please respond with the number in % and leave the unit unwritten.

// below: answered compounds
[
  {
    "Line Notation": "C#CCN(Cc1nc2cc(C(F)(F)F)ccc2nc1-c1ccccc1)c1ccc(F)c(F)c1",
    "Unit Annotation": "%",
    "growth at 100 µM": 95
  },
  {
    "Line Notation": "COc1ccc(N(C)Cc2nc3cc(C(F)(F)F)ccc3nc2-c2ccccc2)cc1",
    "Unit Annotation": "%",
    "growth at 100 µM": 107
  },
  {
    "Line Notation": "C#CCN(Cc1nc2cc(C(F)(F)F)ccc2nc1-c1ccccc1)c1ccc(C)cc1",
    "Unit Annotation": "%",
    "growth at 100 µM": 89
  },
  {
    "Line Notation": "C#CCN(Cc1nc2cc(C(F)(F)F)ccc2nc1-c1ccccc1)c1ccc(C(F)(F)F)cc1F",
    "Unit Annotation": "%",
    "growth at 100 µM": 110
  },
  {
    "Line Notation": "C#CCN(Cc1nc2cc(C(F)(F)F)ccc2nc1-c1ccccc1)c1ccc(F)cc1",
    "Unit Annotation": "%",
    "growth at 100 µM": 90
  },
  {
    "Line Notation": "C#CCN(Cc1nc2cc(C(F)(F)F)ccc2nc1-c1ccccc1)c1ccccc1Cl",
    "Unit Annotation": "%",
    "growth at 100 µM": 87
  },
  {
    "Line Notation": "C#CCN(Cc1nc2cc(C(F)(F)F)ccc2nc1-c1ccccc1)c1ccc(OC(F)(F)F)cc1",
    "Unit Annotation": "%",
    "growth at 100 µM": 21
  },
  {
    "Line Notation": "CCN(Cc1nc2cc(C(F)(F)F)ccc2nc1-c1ccccc1)c1ccc(OC(F)(F)F)cc1",
    "Unit Annotation": "%",
    "growth at 100 µM": 85
  }
]

q: I'd like to know its growth at 100 µM. The compound in question is C#CCN(Cc1nc2cc(C(F)(F)F)ccc2nc1-c1ccccc1)c1cc(OC)c(OC)c(OC)c1
a: 102

q: I'd like to know its growth at 100 µM. The compound in question is C#CCN(Cc1nc2cc(C(F)(F)F)ccc2nc1-c1ccccc1)c1ccc(CC(=O)OCC)cc1
a: 111

q: I'd like to know its growth at 100 µM. The compound in question is CCOC(=O)Cc1ccc(N(C)Cc2nc3cc(C(F)(F)F)ccc3nc2-c2ccccc2)cc1
a: 107

q: I'd like to know its growth at 100 µM. The compound in question is CN(Cc1nc2cc(C(F)(F)F)ccc2nc1-c1ccccc1)c1ccc(F)cc1
a: 125

q: I'd like to know its growth at 100 µM. The compound in question is C#CCN(Cc1nc2cc(C(F)(F)F)ccc2nc1-c1ccccc1)c1ccc(Cl)cc1
a: 84

q: I'd like to know its growth at 100 µM. The compound in question is CCN(Cc1nc2cc(C(F)(F)F)ccc2nc1-c1ccccc1)c1ccc(OC)cc1
a: 89

q: I'd like to know its growth at 100 µM. The compound in question is COc1cc(N(C)Cc2nc3cc(C(F)(F)F)ccc3nc2-c2ccccc2)cc(OC)c1OC
a: 97

q: I'd like to know its growth at 100 µM. The compound in question is C#CCN(Cc1nc2cc(C(F)(F)F)ccc2nc1-c1ccccc1)c1ccc(OC)cc1
a: 103

q: I'd like to know its growth at 100 µM. The compound in question is CCN(Cc1nc2cc(C(F)(F)F)ccc2nc1-c1ccccc1)c1ccc(Cl)cc1
a: 81

q: I'd like to know its growth at 100 µM. The compound in question is CCN(Cc1nc2cc(C(F)(F)F)ccc2nc1-c1ccccc1)c1ccc(OC)c(OC)c1
a: 0

q: I'd like to know its growth at 100 µM. The compound in question is COc1ccc(N(C)Cc2nc3cc(C(F)(F)F)ccc3nc2-c2ccccc2)cc1OC
a: 103

q: I'd like to know its growth at 100 µM. The compound in question is C#CCN(Cc1nc2cc(C(F)(F)F)ccc2nc1-c1ccccc1)c1ccc(OC)c(OC)c1
a: 109

---

Target sequence: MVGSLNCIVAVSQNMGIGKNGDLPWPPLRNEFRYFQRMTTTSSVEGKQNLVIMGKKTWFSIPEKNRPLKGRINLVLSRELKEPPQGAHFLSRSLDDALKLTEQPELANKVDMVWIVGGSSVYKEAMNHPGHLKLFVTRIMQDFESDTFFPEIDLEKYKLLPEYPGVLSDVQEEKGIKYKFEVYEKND
Readout Label: pKi
# pKi = -log10(concentration in molar units)

// below: answered compounds
[
  {
    "Line Notation": "C#CCN(Cc1nc2cc(C(F)(F)F)ccc2nc1-c1ccccc1)c1ccc(F)c(F)c1",
    "Readout Label": "pKi",
    "Measurement": 5.10
  },
  {
    "Line Notation": "Cc1ccc(N(C)Cc2nc3cc(C(F)(F)F)ccc3nc2-c2ccccc2)cc1",
    "Readout Label": "pKi",
    "Measurement": 4.96
  },
  {
    "Line Notation": "C#CCN(Cc1nc2cc(C(F)(F)F)ccc2nc1-c1ccccc1)c1ccc(F)cc1",
    "Readout Label": "pKi",
    "Measurement": 5.10
  },
  {
    "Line Notation": "CN(Cc1nc2cc(C(F)(F)F)ccc2nc1-c1ccccc1)c1ccc(F)c(F)c1",
    "Readout Label": "pKi",
    "Measurement": 5.40
  }
]

q: I'd like to know its pKi. The compound in question is CCN(Cc1nc2cc(C(F)(F)F)ccc2nc1-c1ccccc1)c1cc(OC)c(OC)c(OC)c1
a: 5.22

q: I'd like to know its pKi. The compound in question is CCN(Cc1nc2cc(C(F)(F)F)ccc2nc1-c1ccccc1)c1ccc(F)cc1
a: 5.52

Reference source: ChEMBL document CHEMBL3120154
